Tested on: HCT-116 colon
assay: NCI tumour cell line growth inhibition, 48 h
Catalogue of molecules with associated TGI

molecule	TGI
O=C1C(=O)N(c2ccc(Cl)c(Cl)c2)C(=O)C(=O)C1c1nc2ccccc2o1	> 100 µM
CC1(C)C(=O)N=C(N)N1C(=O)OCc1ccccc1	> 100 µM
CC1=NN(C(=O)Cc2ccccc2)C(=O)/C1=C\C=C\c1ccccc1	> 100 µM
CC1[C@@H](OCc2ccccc2)COC(=O)N1Cc1ccccc1 (stereo not given in full)	> 100 µM
CNC(=O)c1cccc(-c2ccc3c(N4CCOC[C@@H]4C)nc(N4CCOC[C@@H]4C)nc3n2)c1	> 100 µM
O=[N+]([O-])C(=C(N1CCOCC1)N1CCOCC1)/C(Cl)=C(\Cl)[N+](=O)[O-]	4.28 µM
COc1ccc(SC(C)(SC)c2ccccn2)c(OC)n1 (stereo not given)	> 100 µM
OCCCCC#Cc1ccccc1C#Cc1ccccc1C(F)(F)F	21.3 µM
O=S1(=O)CCN(Cc2ccccc2)/C1=N\S(=O)(=O)c1ccc(Cl)cc1	33 µM
COc1cc2c(/C=C3/C(=O)Nc4ccccc43)c(Cl)n(Cc3ccccc3[N+](=O)[O-])c2cc1C	18.6 µM
CC1=C(OC2OC(CO)C(O)C(O)C2O)C(=O)C[C@H]2C1=CC[C@@H]1[C@@]2(C)C(=O)C[C@]2(C)[C@@H]([C@@](C)(O)C(=O)CCC(C)(C)O)[C@H](O)C[C@@]12C (stereo not given in full)	> 100 µM
O=c1cc2ccccc2nn1-c1ccccc1Cl	> 100 µM
COC(=O)c1c(C(=O)OC)c2cc(C(=O)c3ccccc3)ccn2c1Cl	> 100 µM
O=C(NC(=S)Nc1ccc(Cl)cc1)c1ccccc1	> 100 µM
COC(=O)/C(=C\c1c(C)[nH]c2ccccc12)S(=O)(=O)c1ccccc1	17.3 µM
CCCCCCCCCCCCCCCCP(=O)(O)OP(=O)(O)OCC1OC(n2cnc3c(N)ncnc32)C(O)C1O (stereo not given)	47.3 µM
CCOP(=O)(OCC)/C(C#N)=C/c1ccco1	> 100 µM
Cc1ccc2c(=O)c3cccc(CC(=O)O)c3oc2c1C	> 100 µM
CC(C)(C)[C@H]1CO[C@]2(C)[C@@H]3C[C@@H]3C(=O)N12	> 100 µM
O=S(=O)(c1ccc(I)cc1)N(c1ccccc1)S(=O)(=O)C(F)(F)C(F)(F)C(F)(F)C(F)(F)F	44.6 µM

* * *

Test system: DU-145 prostate
assay: NCI tumour cell line growth inhibition, 48 h
Recorded GI50 by entry

compound	GI50
COc1ccc(-c2nc(-c3cn(C)c4ncccc34)cs2)cc1	> 100 µM
COc1ccc(-c2nc(-c3ccccc3)c(-c3ccccc3)n2C2CC2)cc1OC1CCCC1	94.5 µM
O=C1CCC2(C=C(Br)C(=O)C(Br)=C2)O1	5.44 µM
CC1=Cc2cc3[n-]c(cc4nc(cc5[n-]c(cc1n2)cc5C)C(C)=C4CCC(=O)O)c(CCC(=O)O)c3C.[Pd+2]	> 100 µM
CC(=O)OC1COC(n2c(N)c(C#N)c(C)c(C#N)c2=S)C(OC(C)=O)C1OC(C)=O (stereo unspecified)	> 100 µM
COc1ccc(/C=C\c2cc(OC)c(OC)c(OC)c2)cc1OCC(=O)Nc1nc2ccc(C(F)(F)F)cc2s1	2.51 µM
CC1(C)N=C(N)N=C(N)N1c1cc(Cl)ccc1Cl	28.3 µM
Fc1ccc(-c2ccc(-c3nnc(-c4cc(F)c(Cl)cc4Cl)o3)o2)cc1Cl	29.5 µM
S=C(N/N=C/c1ccccn1)Nc1ccccn1	2.58 µM
O=C(NC(=S)Nc1ccc(Cl)cc1)c1ccccc1	> 72.9 µM
OCCCCC#Cc1ccccc1C#Cc1ccccc1C(F)(F)F	6.16 µM

* * *

# Lookup of reported TGI keyed by entry
System: TK-10 renal
assay: NCI tumour cell line growth inhibition, 48 h

compound	relational_operator	TGI (µM)
S=C(Nc1ccc(Cl)cc1)Nc1ccc(Cl)cc1 (tested in a mixture with another compound)	=	5.9
C[C@H]1CCC/C=C/[C@@H]2C[C@H](O)C[C@H]2[C@H](O)[C@@H](S(=O)CCN(C)C)CC(=O)O1 (some centres undefined)	>	100
COc1cccc(-c2cc(=O)c3cc(N)ccc3[nH]2)c1	>	100
C=C1C(=O)O[C@H]2[C@H]1CC/C(Cn1cc(-c3ccccc3)nn1)=C\CC[C@@]1(C)O[C@@H]21	=	4.53

* * *

System: SN12C renal
assay: NCI tumour cell line growth inhibition, 48 h
Reported TGI is given for each of the following compounds.

compound	TGI
COc1cccc(-c2cc(=O)c3cc(N)ccc3[nH]2)c1	> 100 µM
CC1=C(OC2OC(CO)C(O)C(O)C2O)C(=O)C[C@H]2C1=CC[C@@H]1[C@@]2(C)C(=O)C[C@]2(C)[C@@H]([C@@](C)(O)C(=O)CCC(C)(C)O)[C@H](O)C[C@@]12C (stereo not given in full)	> 100 µM
O=S1(=O)CCN(Cc2ccccc2)/C1=N\S(=O)(=O)c1ccc(Cl)cc1	33.3 µM
C/C=C(\C)C(=O)O[C@H]1C=CC(=O)O[C@H]1CNC(=O)[C@H](C)O	40.3 µM
COC(=O)Nc1nc2ccccc2c(=O)[nH]1	> 100 µM
CS(=O)c1ccc(COP(N)(=O)N(CCCl)CCCl)cc1 (stereo not given)	> 100 µM
O=C1N=C(c2ccccc2)O/C1=C\c1ccccc1	> 100 µM
Cc1ccc2c(N)c(C(=O)N[C@H]3CCc4cc(N5CC6CCC(C5)N6)ccc4C3)sc2n1	1.8 µM
O=C1CC2(CCC(O)(c3ccc(Cl)cc3)C(C(=O)c3ccc(Cl)cc3)C2)C(=O)c2ccccc2N1 (stereo not given)	24.8 µM
O=C1c2ccccc2-c2c1c1ccccc1c(=O)n2CCNCCNCCn1c2c(c3ccccc3c1=O)C(=O)c1ccccc1-2	14.1 µM
OC1CC(O)c2c(Cl)sc(Cl)c21 (stereo not given)	> 100 µM
COC(=O)C1=C(O)C(O)=C(C(=O)OC)C1	> 100 µM
C=CCOCn1ccc(=O)[nH]c1=O	> 100 µM
O=c1c2cccnc2nc2ccc3c[nH][nH]c3c12	> 10 µM
O=C1c2ccccc2-c2ccc(N=[N+]([O-])c3ccc4c(c3)C(=O)c3ccccc3-4)cc21	> 100 µM
CC1(C)C(=O)N=C(N)N1C(=O)OCc1ccccc1	> 100 µM
CC(=O)N1c2ccccc2Sc2cc(C(O)(C(F)(F)F)C(F)(F)F)ccc21	> 10 µM
COC(=O)C(Nc1ccc(OC)cc1)c1ccccc1 (stereo not given)	> 100 µM
COc1ccc(SC(C)(SC)c2ccccn2)c(OC)n1 (stereo not given)	> 100 µM
CC1NOC(=O)C1N=Nc1ccccc1Cl (stereo not given)	> 100 µM
O=[N+]([O-])C1C2C=CC(C2)[C@H]1c1ccccc1Cl (stereo not given in full)	> 100 µM
C=C[C@@]1(C)CC(=O)[C@]2(O)[C@@]3(C)[C@@H](OC(C)=O)CCC(C)(C)[C@@H]3[C@H](OC(C)=O)[C@H](OC(C)=O)[C@@]2(C)O1	> 100 µM
N#CC12C3C4CC5C6C4C1C6C(O)(C53)N2Cc1ccccc1 (stereo not given)	> 100 µM
CC1=NN(C(=O)Cc2ccccc2)C(=O)/C1=C\C=C\c1ccccc1	> 100 µM
COc1ccc(-c2cn[nH]c2-c2cc(OC)c(OC)c(OC)c2)cc1N	> 100 µM
CC1OC(O[C@H]2CC[C@]3(C)[C@H]4CC=C5[C@@H]6[C@@H](C)[C@H](C)CC[C@]6(C(=O)O)CC[C@@]5(C(=O)O)[C@]4(C)CC[C@H]3C2(C)C)C(O)C(O)C1O (stereo not given in full)	> 75 µM
O=c1cc(-c2ccccc2)nc2n1CCN2Cc1ccccc1	> 100 µM
O=C(NOCC1CC1)c1ccc(F)c(F)c1Nc1ccc(I)cc1Cl	> 100 µM
Cc1ccc2c(=O)c3cccc(CC(=O)O)c3oc2c1C	> 100 µM
CN(C)CCO/N=C1/C=C2CC[C@H]3[C@@H]4CC[C@H](O)[C@@]4(C)CC[C@@H]3[C@@]2(C)CC1	32.8 µM
O=[N+]([O-])/C=C/c1c[nH]c2ccccc12	37.1 µM
Cc1cc2c(F)c(Oc3ncnn4cc(OC[C@@H](C)OC(=O)[C@H](C)N)c(C)c34)ccc2[nH]1	26.2 µM
O=C(c1ccncc1)n1nc(-c2ccccc2)c(N=Nc2ccc([N+](=O)[O-])cc2)c1-c1ccccc1	> 100 µM
NC1=NC(OCC2(CO)CCC2)C=C(NCC2(CO)CCC2)N1 (stereo not given)	> 100 µM
ON=C1CCC(c2ccccc2)CC1 (stereo not given)	> 100 µM
Fc1ccc(-c2ccc(-c3nnc(-c4cc(F)c(Cl)cc4Cl)o3)o2)cc1Cl	> 100 µM
O=c1cc2ccccc2nn1-c1ccccc1Cl	> 100 µM
COC(=O)c1c(CC#N)cccc1CC#N	> 100 µM
O=C1/C(=C\c2cccc(Oc3ccccc3)c2)SC(c2ccccc2)N1c1ccc(Cl)cc1 (stereo not given)	> 100 µM
Cc1ccccc1N(C)S(=O)(=O)c1ccccc1[N+](=O)[O-]	> 100 µM
